Attribution: PubChem BioAssay

Test: inhibitors of TNFa-induced NFkB p65 translocation, primary screen, imaging, HUVEC, MLSMR starter and 10KST1 sets (AID 438);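 further: compound added about 3h40 before a 20 min TNFalpha stimulation; signal is the nuclear over cytoplasmic p65 intensity ratio per well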
Conditions: HUVEC TNFa-induced p65 nuclear translocation; at 2 µM, stronger effect = higher value, 0% TNFa-plus-vehicle, 100% no-TNFa wells
property.name: inhibition (%)

INSERT INTO measurements (compound, numeric_readout) VALUES
  ('CCOc1cccc(C(=O)N(Cc2ccco2)C2CCS(=O)(=O)C2)c1 (stereo unspecified)', 9.6),
  ('CC(=O)Nc1ccc(S(=O)(=O)NCc2csc(-c3cccnc3)n2)cc1', -10.2),
  ('CCC(C)NC(=O)c1ccccc1NC(=O)C(C)N(c1ccccc1)S(C)(=O)=O (stereo unspecified)', 3.1),
  ('CCCCCCOC(=O)C(C#N)c1nc2ccccc2nc1N1CCCCC1 (stereo unspecified)', 5.7),
  ('CCCCN(CC)CCNC(=O)c1cc2c(C)nc3ccccc3c2o1', 0.3),
  ('COCCN1CCN(c2c(C)c(C)nc3cc(-c4cccc(OC)c4)nn23)CC1', -6.1),
  ('CC(C)(C)C(=O)NC1CCN(C(=O)N2CCCC2)CC1', -6.3),
  ('CN1C(=O)C(CC(=O)N2CCN(C(c3ccccc3)c3ccccc3)CC2)N(C)C1=O (stereo unspecified)', -2.3),
  ('Cc1ccc2[nH]c(=O)c(-c3noc(-c4ccncc4)n3)cc2c1', -9.1),
  ('C=CCOc1ccc(/C(CC)=N/O)c(OC)c1', 15.3),
  ('CCOC(=O)N1CCN(c2cc(=O)n(-c3cccc(Br)c3)c(=O)[nH]2)CC1', -10.1);
